- measured_target: 20S proteasome in Jurkat cell lysates, CT-L activity (Homo sapiens)
- Sequence (P28074 60-263): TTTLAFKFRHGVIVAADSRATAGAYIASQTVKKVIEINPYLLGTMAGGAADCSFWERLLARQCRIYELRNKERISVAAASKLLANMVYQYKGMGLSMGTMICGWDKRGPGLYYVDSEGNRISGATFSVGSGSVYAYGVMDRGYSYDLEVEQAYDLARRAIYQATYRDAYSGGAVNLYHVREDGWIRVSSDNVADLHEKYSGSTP
- Sequence (P20618 29-241 partner): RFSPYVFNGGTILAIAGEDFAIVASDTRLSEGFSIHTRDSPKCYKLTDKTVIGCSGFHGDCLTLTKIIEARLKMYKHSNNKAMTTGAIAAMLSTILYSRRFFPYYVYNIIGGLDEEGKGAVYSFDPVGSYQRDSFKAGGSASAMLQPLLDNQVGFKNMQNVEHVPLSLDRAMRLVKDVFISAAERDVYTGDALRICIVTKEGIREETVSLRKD
- assay_remarks: Proteasome inhibition assay in cell lysates, Jurkat, CT-L
- test_parameters: read-out: percentage of proteasome inhibition, CT-L, cell lysates Jurkat, at 100 µM; Table 2 legend: bortezomib 10 µM

{"compound": "O=C1c2ccccc2C(=O)c2c(Nc3ccc(S(=O)(=O)N(CCO)CCO)cc3)ccc(O)c21", "unit_spec": "%", "inhibition at 100 µM": 72.1}
{"compound": "Cc1ccc2ccccc2c1CSc1ncnc2c1ncn2C1OC(CO)C(O)C1O (centres unmarked)", "unit_spec": "%", "inhibition at 100 µM": 53.5}
{"compound": "Cc1ccc(/C(=N/NS(=O)(=O)c2ccc([N+](=O)[O-])cc2)Sc2cc(Cl)c(C)cc2S(N)(=O)=O)cc1", "unit_spec": "%", "inhibition at 100 µM": 32.8}
{"compound": "CC(C)c1nc(CN(C)C(=O)N[C@@H](CCN2CCOCC2)C(=O)N[C@H](CC[C@H](Cc2ccccc2)NC(=O)OCc2cncs2)Cc2ccccc2)cs1 [Compound 5, cobicistat, reference compound]", "unit_spec": "%", "inhibition at 100 µM": 63.7}
{"compound": "C#CCCN1CCN(c2ccc(-n3c(=O)ccc4cnc5ccc(-c6ccc(N)nc6)cc5c43)cc2C(F)(F)F)CC1", "unit_spec": "%", "inhibition at 100 µM": 98}
